# study target: KRas G12D/Q61H double mutant (Homo sapiens (Human), UniProt P01116, G12D/Q61H)
# Sequence (P01116-2 other isoform, or with tags, fused parts or gaps G12D/Q61H): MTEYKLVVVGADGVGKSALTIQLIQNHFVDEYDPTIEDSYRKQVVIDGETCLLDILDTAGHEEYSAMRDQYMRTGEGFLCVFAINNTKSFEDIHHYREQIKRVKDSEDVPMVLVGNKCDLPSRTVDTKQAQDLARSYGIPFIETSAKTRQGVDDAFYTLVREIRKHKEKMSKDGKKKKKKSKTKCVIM
# measurement description: Ras GTP binding domain inhibition assay (labeled GTP)
# setup conditions: at 20 μM; read-out: KRas G12D Q61H % Inh.
Quick reference: inhibition at 20 µM of the listed items.
assay readout: inhibition at 20 µM

>>> observed("COc1cc(OC)cc(N2CCN(C(=O)c3csc4c(O)nc(-c5ccccn5)nc34)CC2)c1 [drawing 3646]")
"0%"
>>> observed("CN(C)CCOc1cccc(-c2csc3c(O)nc(-c4ccccn4)nc23)c1 [drawing 3811]")
"76 to 100%"
>>> observed("Oc1nc(-c2ccccn2)nc2c(-c3ccc4c(c3)OCO4)csc12 [drawing 3751]")
"51 to 75%"
>>> observed("COc1ccc(F)cc1-c1csc2c(O)nc(-c3ccccn3)nc12 [drawing 3746]")
"51 to 75%"
>>> observed("Oc1nc(-c2ccccn2)nc2c(-c3cncnc3)csc12 [drawing 3823]")
"1 to 25%"
>>> observed("COc1ccnc(-c2nc(O)c3c(Cl)csc3n2)c1 [drawing 3689]")
"51 to 75%"
>>> observed("Cc1ccc(-c2cc3nc(-c4ccccn4)nc(O)c3s2)cc1 [drawing 3873]")
"0%"
>>> observed("O=C(c1csc2c(O)nc(-c3ccccn3)nc12)N1CCOC(c2ccccc2Cl)C1 (stereo not drawn) [drawing 3658]")
"51 to 75%"
>>> observed("CN(CCc1cccc(C#N)c1)C(=O)c1csc2nc(-c3ccccn3)nc(N3CCOCC3)c12 [drawing 3677]")
"1 to 25%"

====

Quick reference: inhibition at 20 µM of the listed items.
# study target: UniProtKB P61586
# Sequence (P61586 whole entry): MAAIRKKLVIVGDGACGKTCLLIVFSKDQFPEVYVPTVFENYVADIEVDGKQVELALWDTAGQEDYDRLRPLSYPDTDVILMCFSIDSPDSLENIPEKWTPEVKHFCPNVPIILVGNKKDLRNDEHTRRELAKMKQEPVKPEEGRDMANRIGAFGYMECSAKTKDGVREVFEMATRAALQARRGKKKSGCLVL
# measurement description: Rho inhibition assay (labeled GTP)
# Format: binding
# setup conditions: read-out: Rho-A % Inh.
assay readout: inhibition at 20 µM

>>> observed("CC(O)CNc1nc(-c2nccn2C)nc2sc(-c3ccccc3)c(-c3ccccc3)c12 (stereo not drawn) [drawing 3887]")
"25 to 50%"
>>> observed("COCc1ccc(-c2csc3c(O)nc(-c4ccccn4)nc23)cc1F [drawing 3718]")
"76 to 100%"
>>> observed("COC(=O)c1nc(-c2ccccn2)nc(O)c1O [drawing 3865]")
"76 to 100%"
>>> observed("N#Cc1ccc(CCNC(=O)c2csc3nc(-c4ccccn4)nc(N4CCOCC4)c23)cc1 [drawing 3639]")
"25 to 50%"
>>> observed("COc1cnc(-c2cnc[nH]2)nc1O [drawing 3834]")
"76 to 100%"
>>> observed("O=C(c1csc2c(O)nc(-c3ccccn3)nc12)N1CCOC(c2nccs2)C1 (stereo not drawn) [drawing 3631]")
"76 to 100%"
>>> observed("Oc1cccc(-c2csc3c(O)nc(-c4ccccn4)nc23)n1 [drawing 3817]")
"76 to 100%"
>>> observed("O=C(c1csc2c(O)nc(-c3ccccn3)nc12)N1CCNC(Cc2ccccc2)C1 (stereo not drawn) [drawing 3667]")
"76 to 100%"
>>> observed("Cc1nn(C(C)C)cc1-c1csc2c(O)nc(-c3ccccn3)nc12 [drawing 3825]")
"76 to 100%"
>>> observed("Cn1ccnc1-c1nc(O)c2scc(-c3ccc(C(C)(C)C)cc3)c2n1 [drawing 3937]")
"25 to 50%"
>>> observed("Cn1ccnc1-c1nc(O)c2scc(-c3cccc(OC(F)(F)F)c3)c2n1 [drawing 3921]")
"25 to 50%"
>>> observed("Nc1nc(-c2ccccn2)nc2c(-c3ccccc3)csc12 [drawing 3731]")
"51 to 75%"
>>> observed("Cc1cnc(-c2ccccn2)nc1NC(=O)Cc1ccc2cnccc2c1 [drawing 3728]")
"76 to 100%"
>>> observed("COc1cc(CCN(C)C(=O)c2csc3nc(-c4ccccn4)nc(N4CCOCC4)c23)ccn1 [drawing 3670]")
"51 to 75%"
>>> observed("Oc1nc(-c2ccccn2)nc2c(-c3ccc(OC4CCOC4)cc3)csc12 (stereo not drawn) [drawing 3734]")
"76 to 100%"
>>> observed("O=C(c1csc2c(O)nc(-c3ccccn3)nc12)N1CCOC(Cc2ccccc2)C1 (stereo not drawn) [drawing 3660]")
"76 to 100%"
>>> observed("N#Cc1cccc(-c2csc3c(O)nc(-c4ccccn4)nc23)c1 [drawing 3822]")
"1 to 25%"
>>> observed("Cn1cnc(-c2nc(O)c3c(-c4ccccc4)c(-c4ccc(CNC(=O)OC(C)(C)C)cc4)sc3n2)c1 [drawing 3855]")
"25 to 50%"
